experimental_target: wt human TYK2, catalytic site (Homo sapiens, UniProt P29597)
Construct: wt human TYK2, catalytic site
Sequence (P29597 897-1176 limits assumed): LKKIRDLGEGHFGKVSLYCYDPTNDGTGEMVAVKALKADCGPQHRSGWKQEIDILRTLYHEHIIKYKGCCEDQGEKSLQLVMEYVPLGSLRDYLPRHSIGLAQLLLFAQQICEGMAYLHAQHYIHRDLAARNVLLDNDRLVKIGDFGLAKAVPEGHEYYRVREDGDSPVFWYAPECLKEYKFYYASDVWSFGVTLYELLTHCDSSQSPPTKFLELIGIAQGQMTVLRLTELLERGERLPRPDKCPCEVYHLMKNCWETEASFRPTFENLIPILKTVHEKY
test_details: HTRF KinEASE assay, TYK2
assay_context: 1 μM ATP; read-out: IC50, Activity Toward TYK2
pIC50: −log10 of the molar value.
reported_metric: pIC50

>  <line_notation>
NC(=O)c1nn(-c2c(Cl)cccc2Cl)cc1Nc1ccc(C(=O)N2CCCC2)cc1

>  <experimental_target>
wt human TYK2, catalytic site (Homo sapiens, UniProt P29597)

>  <measurement>
7.00 to 8.00

$$$$
>  <line_notation>
CCn1ncnc1-c1ccc(Nc2cn(-c3c(Cl)cccc3Cl)nc2C(N)=O)cc1

>  <experimental_target>
wt human TYK2, catalytic site (Homo sapiens, UniProt P29597)

>  <measurement>
7.00 to 8.00

$$$$
>  <line_notation>
Cn1nc(C(F)(F)F)nc1-c1ccc(Nc2cn(-c3c(F)cccc3Cl)nc2C(N)=O)cc1

>  <experimental_target>
wt human TYK2, catalytic site (Homo sapiens, UniProt P29597)

>  <measurement>
> 8.00

$$$$

Summary: NC(=O)c1nn(-c2c(Cl)cc(F)cc2Cl)nc1Nc1ccc(C(=O)N2CCS(=O)(=O)CC2)cc1 , wt human TYK2, catalytic site (Homo sapiens, UniProt P29597), pIC50 = > 8.00

Summary: COCc1nc(C(F)(F)F)nn1-c1ccc(Nc2cn(-c3c(Cl)cccc3Cl)nc2C(N)=O)cc1 , wt human TYK2, catalytic site (Homo sapiens, UniProt P29597), pIC50 = > 8.00

---

The compounds listed here are annotated with their IC50.
experimental_target: wt human JAK2, catalytic site (Homo sapiens, UniProt O60674)
Construct: wt human JAK2, catalytic site
Sequence (O60674 849-1124 limits assumed): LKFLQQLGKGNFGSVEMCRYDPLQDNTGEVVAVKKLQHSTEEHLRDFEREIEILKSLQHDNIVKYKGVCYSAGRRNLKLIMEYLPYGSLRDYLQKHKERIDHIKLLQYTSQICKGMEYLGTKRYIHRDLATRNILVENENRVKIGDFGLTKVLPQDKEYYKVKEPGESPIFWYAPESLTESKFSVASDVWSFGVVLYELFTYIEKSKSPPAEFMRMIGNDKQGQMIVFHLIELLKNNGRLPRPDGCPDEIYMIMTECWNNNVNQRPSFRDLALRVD
test_details: HTRF KinEASE assay, JAK2
assay_context: assay format not given (Z'-LYTE or HTRF KinEASE); read-out: IC50, Activity Toward JAK2

Recorded IC50, per entry:
>  <line_notation>
NC(=O)c1nn(-c2c(Cl)cccc2Cl)nc1Nc1ccc(-c2nnc3n2CCCC3)cc1

>  <experimental_target>
wt human JAK2, catalytic site (Homo sapiens, UniProt O60674)

>  <measurement>
100 to 1000 nM

$$$$
>  <line_notation>
NC(=O)c1nn(-c2c(Cl)cccc2Cl)cc1Nc1ccc(-c2nnc3ccccn23)cc1

>  <experimental_target>
wt human JAK2, catalytic site (Homo sapiens, UniProt O60674)

>  <measurement>
100 to 1000 nM

$$$$
>  <line_notation>
NC(=O)c1nn(-c2c(Cl)cccc2Cl)cc1Nc1ccc(-c2nncn2CC(F)F)cc1

>  <experimental_target>
wt human JAK2, catalytic site (Homo sapiens, UniProt O60674)

>  <measurement>
100 to 1000 nM

$$$$

Lab note: N#Cc1cccc(Cl)c1-n1nc(Nc2ccc(C(=O)N3CC[C@@H](F)C3)cc2)c(C(N)=O)n1 gave IC50 of 100 to 1000 nM

---

The molecules listed here are annotated with their pIC50.
experimental_target: wt human JAK1, catalytic site (Homo sapiens)
Construct: wt human JAK1, catalytic site
Sequence (P23458 875-1153 limits assumed): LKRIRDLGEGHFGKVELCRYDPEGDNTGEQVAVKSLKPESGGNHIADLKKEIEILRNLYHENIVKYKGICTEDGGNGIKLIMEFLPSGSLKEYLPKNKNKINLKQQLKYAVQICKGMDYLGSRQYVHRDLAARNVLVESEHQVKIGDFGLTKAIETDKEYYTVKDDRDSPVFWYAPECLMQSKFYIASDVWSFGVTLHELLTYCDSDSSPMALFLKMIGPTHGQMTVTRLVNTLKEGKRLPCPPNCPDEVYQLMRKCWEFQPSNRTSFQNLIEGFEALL
test_details: HTRF KinEASE assay, JAK1
assay_context: 2.5 μM ATP; read-out: IC50, Activity Toward JAK1
pIC50: −log10 of the molar value.

>  <molecule>
CC(C)n1cnnc1-c1ccc(Nc2cn(-c3c(Cl)cccc3Cl)nc2C(N)=O)cn1 [compound 400]

>  <pIC50>
6.00 to 7.00

$$$$
>  <molecule>
CC1(C)CN(C(=O)c2ccc(Nc3nn(-c4c(Cl)cccc4Cl)nc3C(N)=O)cc2)C1 [compound 166]

>  <pIC50>
> 8.00

$$$$

Lab note: Cn1cc(C(F)(F)F)nc1-c1ccc(Nc2cn(-c3c(F)cccc3Cl)nc2C(N)=O)cc1 [compound 305] gave pIC50 of 7.00 to 8.00

Lab note: CC(C)(C)OC(=O)N1CCCC(NC(=O)c2ccc(Nc3cn(-c4c(Cl)cccc4Cl)nc3C(N)=O)cc2)C1 (stereo not shown) [compound 33] gave pIC50 of 6.00 to 7.00

Lab note: NC(=O)c1nn(-c2c(Cl)cccc2Cl)cc1Nc1ccc(C(=O)N2CCC(F)C2)cc1 (stereo not shown) [compound 246] gave pIC50 of 7.00 to 8.00
